# credit: ChEMBL document CHEMBL3433997

# assayed.system: Hexose transporter 1 (Plasmodium falciparum)
# assay.notes: ST_JUDE_LEISH: Cytotoxicity at 2uM final concentration against transgenic Leishmania Mexicana promastigotes LmPfHT that are glucose transport deficient and complemented with the Plasmodium falciparum hexose transporter. Activity is measured by DNA content using SYBR green in vitro
# Type: functional
measure: inhibition (%)
Quick note: give the figure in %, leave out the unit.

The following molecules have reported results that may help.
COc1ccc(NC(=O)/C=C/c2cc(F)cc(C(F)(F)F)c2)cc1OCCN(C(C)C)C(C)C = 9.92
Oc1ccc2ccccc2c1CNCCC1CCCCC1 = 0.52
OCCN1CCN(Cc2ccc(-c3ccc(-c4nc5cc(C(F)(F)F)ccc5[nH]4)s3)cc2)CC1 = 4.05
COc1ccc(C(C(=O)NC2CCN(C[C@H](O)c3ccnc4ccc(OC)cc34)CC2)N2CCN(c3ccc([N+](=O)[O-])cc3)CC2)cc1 (some centres undefined) = 1.79

Query: Could you share which inhibition value was measured for Cc1cccc(Cn2ccc3c(N)nc(N)nc32)c1 ?
Response: 3.14

Query: Name the recorded inhibition for COc1ccc(NC(=O)c2ccc3[nH]c(-c4ccc(Cl)cc4)cc3c2)cc1OCCN(C)C .
Response: 1.88

Query: Bench note: what inhibition did CC(=NNC(S)=NC(c1ccccc1)c1ccccc1)c1ccccn1 show?
Response: 58.8

Query: Quick one: inhibition for Cc1cccc(-c2cccc(CNc3nc(NCCc4ccc(O)cc4)nc(N4CCNCC4)n3)c2)c1 ?
Response: 3.88

Query: Give the measured inhibition of CN(CCCCCN1CCC(NC(=O)Nc2ccc(C(F)(F)F)cc2)C1)C(=O)/C=C/c1ccc(Cl)c(Cl)c1 (centres undefined) .
Response: 2.11

Query: Name the reported inhibition value associated with the molecule CCCc1ccc(-c2csc(NC(=O)c3ccc([N+](=O)[O-])o3)n2)cc1
Response: 77.8

Query: Sample CN1CCCN(Cc2ccc(-c3cccc(NC(=O)c4ccc(Cl)cc4)c3)cc2)CC1 — what was its inhibition?
Response: 0.88

Query: Sample COc1ccc(-c2cnc3[nH]cc(-c4ccncc4)c3c2)cc1OC — what was its inhibition?
Response: 72.8

Query: I have this molecule here, COc1ccc(C=NN=c2cc(C)[nH]c3ccc(C)cc23)c2ccccc12 , and I need its recorded inhibition.
Response: 1.75

Query: Any idea what inhibition was measured for O=C(NCC1CCCCC1)c1cc(=O)c2ccccc2o1 ?
Response: 10.2

Query: Find the recorded inhibition belonging to COc1ccc(C2CCN(CCN3CCC(NC(=O)c4ccc(-c5cccc(C(F)(F)F)c5C(F)(F)F)cc4)CC3)CC2)c(OC)c1 and report it.
Response: 1.29

Query: Request the reported inhibition associated with Fc1ccc2[nH]c(-c3cccc(-c4ccc(CN5CCC(CCN6CCCCC6)CC5)cc4)c3)nc2c1
Response: 4.58

Query: For COc1ccc(CC2(c3ccc(F)cc3)N=C(N)N(CCCc3ccc4c(c3)OCO4)C2=O)cc1 (centres undefined) , what is its reported inhibition?
Response: 5.58

Query: Bench note: what inhibition did CC(=O)Nc1cccc(Nc2nccc(-c3c(-c4cccc(NC(=O)c5c(F)cccc5F)c4)nn4ncccc34)n2)c1 show?
Response: 11

Query: // query inhibition value for entry CC1CN(c2cccc3c2nc(-c2cncc(C#N)c2)n3CCNCc2ccccc2)CC(C)O1 (centres undefined)
Response: 2.38

---

# assayed.system: Glucose transporter (Leishmania mexicana)
# assay.notes: ST_JUDE_LEISH: Cytotoxicity at 2uM final concentration against transgenic Leishmania Mexicana promastigotes LmGT2 that are glucose transport deficient and complemented with the L. Mexicana glucose transporter 2. Activity is measured by DNA content using SYBR green in vitro
# Assay type: functional
Here the recorded inhibition is given for each entry.
The response must be a number in % with no trailing unit.

O=C(/C=C/c1ccc(Cl)c(Cl)c1)NCCCCCN1CCCN(C(=O)Nc2ccc(C(F)(F)F)cc2)CC1 = 5.5
Oc1ccc(-c2cc(COc3ccccc3C(F)(F)F)c(C3=CCNCC3)cc2COc2ccccc2C(F)(F)F)cc1 = -0.12
COc1cc(-c2nc(-c3ccncc3)c(-c3ccc4c(c3)CCC4=NO)[nH]2)ccc1OCCN1CCCCC1 = 2.76
CCN(CC)CCN(Cc1ccc(-c2ccc(C(F)(F)F)cc2)cc1)C(=O)c1ccc(-c2ccc(C#N)cc2)cc1 = 2.37

Query: Dear colleague, I am looking for the recorded inhibition of the following compound: Nc1nc(N)c2cc(Cc3ccccc3Cl)cnc2n1
Response: 1.45

---

# assayed.system: Hexose transporter 1 (Plasmodium falciparum) (UniProt O97467)
# assay.notes: ST_JUDE_LEISH: Cytotoxicity at 2uM final concentration against transgenic Leishmania Mexicana promastigotes LmPfHT that are glucose transport deficient and complemented with the Plasmodium falciparum hexose transporter. Activity is measured by DNA content using SYBR green in vitro
# Assay type: functional
The entries below come with measured inhibition values attached.
Please reply with the bare figure in % and do not write the unit itself.

CC[C@H](C)CNC(=O)c1cncc(-c2ccc(CN(C)C3CCN(C)CC3)cc2)c1 = 3.62
Nc1nccc2ccc(Oc3ccncc3)cc12 = 3.29
O=C(Nc1cccc(CN2CCCN(Cc3cccc(O)c3)CC2)c1)c1ccc(Cl)c(Cl)c1 = 12.1
COc1cc2c(cc1OC)CN(CCCCNC(=O)c1ccc(NC(=O)c3cc(Cl)cc(Cl)c3)cc1)CC2 = 3.93
Cn1nc(C(F)(F)F)c(-c2ccc(Br)cc2)c1NC(=O)Cc1ccccc1F = 3.22
CCN1C(=O)C(=NN=C(S)N2CCCC2)c2ccccc21 = -1.51
O=C(Nc1ccc2[nH]c(-c3ccccc3)nc2c1)c1cc(-c2ccc3c(c2)OCCO3)n[nH]1 = 11.6
CCCCNc1ccc(C(=O)NC2CCN(C[C@H](O)c3ccnc4ccc(OC)cc34)CC2)cc1 = 11.8

Query: Give its inhibition value. Item: CC(=O)CC(=O)N1CCN(c2ccccc2)CC1
Response: -0.81

Query: I am curious: what inhibition value has been reported for O=C(NC1CCN(CCN2CCC(c3ccccc3C(F)(F)F)CC2)CC1)c1ccc(-c2ccc(Cl)cc2)cc1 ?
Response: 0.61

Query: Could you tell me which inhibition is on file for CC1(C)NC(N)=NC(=N)N1OCCc1cccc2ccccc12 ?
Response: 10.7

Query: Reported inhibition for O=C(Nc1ccc(CCNCc2ccccc2)cc1)Nc1ccc(OC(F)(F)F)cc1 : what is it?
Response: -0.14

Query: # lookup: inhibition of Cc1ccc2c(=O)cc(CCc3cccc(F)c3F)n(CC(=O)N(Cc3ccc(-c4ccc(C(F)(F)F)cc4)cc3)C3CCN(C(C)C)CC3)c2n1
Response: -0.71

Query: Which inhibition value belongs to O=C(CCCCCNC(=O)c1ccc(O)c(-c2ccc(Cl)c(Cl)c2)c1)NCCc1ccc(Cl)c(Cl)c1 ?
Response: 0.09

Query: Need inhibition of OC1(C(F)(F)F)CC(c2ccccc2)=NN1c1nncc(-c2ccccc2)n1 (centres undefined) , thanks.
Response: 0.53

Query: inhibition for Cc1cccc(CN2CCC(C(=O)Nc3ccc(-c4nc5ccccc5[nH]4)cc3)CC2)n1 ?
Response: 2.69

Query: Recorded inhibition of COc1ccccc1NC(=O)Nc1cccc(-c2cccc(-c3nc4cc(C(F)(F)F)ccc4[nH]3)c2)c1 , please.
Response: -0.1

Query: What does the data say about its inhibition? Entry: CCN(CC)CCCC(C)Nc1nc(C=Cc2ccc(Br)cc2)nc2cc(Cl)ccc12 (centres undefined)
Response: 9.25

Query: Need inhibition of CNCCNCc1cccc(-c2ccc(-c3nc4cccc(C)c4[nH]3)cc2)c1 , thanks.
Response: -3.38

Query: # query: inhibition of entry Cc1ccc(NCC(=O)Nc2ccc(F)c(Cl)c2)cc1S(=O)(=O)N1CCOCC1
Response: 1.86

Query: State the recorded inhibition for this entry: COc1ccc(-c2ccc(NC(=O)c3cccc(F)c3)cc2)cc1CN1CCCN(C)CC1
Response: 2.56

Query: For CC[C@H](C)CNC(=O)c1cncc(-c2ccc(CN3CCC(N4CCCC4)CC3)cc2)c1 , what is its reported inhibition?
Response: 0.26

Query: Which inhibition reading was recorded for the compound CCN(CC)CCN(Cc1ccc(-c2ccc(C(F)(F)F)cc2)cc1)C(=O)Cn1c(CCc2cccc(F)c2F)nc(=O)c2cccnc21 ?
Response: 2.07

Query: What measured inhibition goes with COc1ccc2nccc([C@@H](O)CN3CCC(NCCOc4ccccc4C(F)(F)F)CC3)c2c1 ?
Response: 2.17

---

# assayed.system: Glucose transporter (Leishmania mexicana)
# assay.notes: ST_JUDE_LEISH: Cytotoxicity at 2uM final concentration against transgenic Leishmania Mexicana promastigotes LmGT2 that are glucose transport deficient and complemented with the L. Mexicana glucose transporter 2. Activity is measured by DNA content using SYBR green in vitro
# Assay type: functional
Reported inhibition is given for each of the following compounds.
Hi! Could you send only the number? It should be in %, unit omitted.

COc1cc(CN/C(=N/c2ccc(-c3ccccc3)cc2)Nc2ccc(C#N)cc2O)cc(OC)c1 = 0.77
COc1ccc(-c2cccc(NC(=O)c3ccc(Cl)cc3)c2)cc1CN1CCC(O)CC1 = 1.8
O=c1c2cccnc2sn1-c1ccccc1 = 0.72
COc1ccc2nccc([C@@H](O)CN3CCC(NC(=O)/C=C/c4cc(F)cc(Br)c4)CC3)c2c1 = -0.22
Cc1c(C(=O)C2CC2CN2CCC(N3CCCCC3)CC2)sc2ccccc12 (stereo not given) = 2.09

Now turn to the next compound.
Query: Request body: readout inhibition, system Glucose transporter (Leishmania mexicana), query CCC(CC(C)C(=O)O)=C(c1ccccc1)c1ccccc1 (stereo not given) . Return the value.
Response: 0.2
